# Study system: VMAT2 (Rattus norvegicus (Rat), UniProt Q01827)
# Assay notes: [3H]Dopamine ([3H]DA) uptake assay, vesicular preparation
# Assay type: biochemical
# Test parameters: [3H]DA uptake, rat; read-out: VMAT2 (rat) Inhibition: Mean Ki ± Standard Deviation
Reported endpoint: Ki (nM)
Your answer is read as nM, so omit the unit and give the number.

Notebook: CC(Cc1ccc(N)cc1)NCCCc1ccc(F)cc1 (centres unmarked) [Compound 111] , Ki read as 16.7

// CC(Cc1ccc(N)cc1)NCCCc1ccncc1 (centres unmarked) : Ki value = 378

Given item CC(Cc1ccccc1)NCCCc1ccc(C(F)(F)F)cc1 (centres unmarked) , the value recorded as its Ki is 27.7

For this molecule ( CC(Cc1ccc(-c2cncnc2)cc1)NCCCc1ccc(F)cc1 (centres unmarked) ), measured Ki is 7.12

Reported Ki ( CC(Cc1ccccc1)NCCCc1ccc(S)cc1 (centres unmarked) ) = 65.4
